# experimental system: cloned human MC4R (Homo sapiens, UniProt P32245)
# Construct: made in house; host or cells: Hi5 insect cells (baculovirus infection); membrane preparation
# Sequence (P32245 whole entry): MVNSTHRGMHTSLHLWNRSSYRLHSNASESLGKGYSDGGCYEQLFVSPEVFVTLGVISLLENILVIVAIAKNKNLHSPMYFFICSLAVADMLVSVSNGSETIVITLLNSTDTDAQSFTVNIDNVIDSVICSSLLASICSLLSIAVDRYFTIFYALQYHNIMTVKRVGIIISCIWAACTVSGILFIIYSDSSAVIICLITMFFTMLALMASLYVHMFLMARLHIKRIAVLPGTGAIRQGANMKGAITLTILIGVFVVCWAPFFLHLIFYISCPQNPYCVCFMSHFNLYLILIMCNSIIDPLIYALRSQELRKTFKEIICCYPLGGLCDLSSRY
# experiment description: Membrane binding assay: competitive inhibition of [125I]NDP-α-MSH binding
# condition: read-out: Displacement Rate (%) (at 10 μM)
# Description: Hi5 cells are infected using the following protocol: Cells at a density of 1×10^6 cells/mL are spun down at 1000 rpm (Beckman GS-6KR centrifuge) for 10 minutes. Cells are resuspended in 10% of their original volume in a sterile 50 mL conical centrifuge tube wrapped with aluminum foil. […] Protein content is determined (Bradford, Bio-Rad Protein Assay). […] Dose-response curves are fitted by […] analyses and IC50 values are calculated using ExcelFit.
quantity measured: inhibition at 10 µM

Consider the following illustrative entries.
N[C@@H](Cc1ccc(OCc2ccccc2)cc1)C(=O)N1CCCN(Cc2c3ccccc3cc3ccccc23)CC1 = 91 to 100%
N[C@@H](Cc1ccc(OCc2ccccc2)cc1)C(=O)N1CCN(Cc2cc([N+](=O)[O-])ccc2Cl)CC1 = 35 to 70%
N[C@@H](Cc1ccc(-c2cccc3cccnc23)cc1)C(=O)N1CCN(Cc2cccc(Cl)c2Cl)CC1 = 71 to 90%
N[C@@H](Cc1ccc(OCc2ccccc2)cc1)C(=O)N1CCCN(C2CCc3ccccc3C2)CC1 (stereo partly drawn) = 71 to 90%

Count: 3. Required value per item: inhibition at 10 µM.
1. CC(=O)c1ccc(-c2ccc(C[C@H](N)C(=O)N3CCN(Cc4cccc(Cl)c4Cl)CC3)cc2)s1
2. N[C@@H](Cc1ccc(OCc2ccccc2)cc1)C(=O)N1CCN(Cc2cc3c(cc2Cl)OCO3)CC1
3. N[C@@H](Cc1ccc(-c2ccsc2)cc1)C(=O)N1CCN(Cc2cccc(Cl)c2Cl)CC1

A:
1: 71 to 90%; 2: 71 to 90%; 3: 91 to 100%

Count: 2. Required value per item: inhibition at 10 µM.
1. N[C@@H](Cc1ccc(OCc2ccccc2)cc1)C(=O)N1CCN(Cc2ccc(Cl)c([N+](=O)[O-])c2)CC1
2. N[C@@H](Cc1ccc(OCc2ccccc2)cc1)C(=O)N1CCCN(Cc2ccc(Cl)c([N+](=O)[O-])c2)CC1

A:
71 to 90%
35 to 70%
